Source: ChEMBL document CHEMBL3769384

- MEASUREMENT_PROTOCOL: Volume of distribution at steady state in CD rat at 1 mg/kg, iv after 24 hrs by LC-MS/MS analysis
- Type: ADME, organism-based
- PROTOCOL_CONDITIONS: in vivo, read-out: Vdss
READOUT_LABEL: Vd (L/kg)

- COMPOUND_SMILES: "Cc1c2c(nn1-c1nnc(-c3ccc(OC(C)C)c(Cl)c3)s1)CCN(CCC(=O)O)C2.O=C(O)C(F)(F)F"
  NUMERIC_READOUT: 3.7

###

- MEASUREMENT_PROTOCOL: Volume of distribution at steady state in beagle dog at 1 mg/kg, iv after 24 hrs by LC-MS/MS analysis
- Assay type: ADME, organism-based, Canis lupus familiaris
- PROTOCOL_CONDITIONS: in vivo, read-out: Vdss

- COMPOUND_SMILES: "Cc1c2c(nn1-c1nnc(-c3ccc(OC(C)C)c(Cl)c3)s1)CCN(CCC(=O)O)C2.Cl"
  Vd (L/kg): 5.3

###

- MEASUREMENT_PROTOCOL: Fraction unbound in CD rat blood after 4 hrs by LC-MS/MS analysis
- Assay type: ADME, tissue-based
READOUT_LABEL: fraction unbound at 4 h

- COMPOUND_SMILES: "Cc1c2c(nn1-c1nnc(-c3ccc(OC(C)C)c(Cl)c3)s1)CCN(CCC(=O)O)C2"
  READOUT_LABEL: "fraction unbound at 4 h"
  NUMERIC_READOUT: 0.014

###

- ASSAYED_TARGET: Cytochrome P450 2C19 (Homo sapiens)
- Sequence (P33261 whole entry): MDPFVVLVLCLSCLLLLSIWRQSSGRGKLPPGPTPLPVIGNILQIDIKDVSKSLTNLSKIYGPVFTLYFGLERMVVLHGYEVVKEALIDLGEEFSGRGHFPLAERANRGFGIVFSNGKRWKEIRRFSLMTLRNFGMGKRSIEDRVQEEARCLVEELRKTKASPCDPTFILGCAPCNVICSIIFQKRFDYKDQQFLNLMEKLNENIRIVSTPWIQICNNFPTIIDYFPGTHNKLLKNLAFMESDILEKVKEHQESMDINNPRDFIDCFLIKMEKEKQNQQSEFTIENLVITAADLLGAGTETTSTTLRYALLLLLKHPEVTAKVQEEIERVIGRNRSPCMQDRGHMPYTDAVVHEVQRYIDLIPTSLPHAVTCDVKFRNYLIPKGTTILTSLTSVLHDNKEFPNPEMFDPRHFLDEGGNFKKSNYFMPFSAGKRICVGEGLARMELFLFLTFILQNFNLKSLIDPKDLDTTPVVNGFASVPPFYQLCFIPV
pIC50: −log10 of the molar value.

- COMPOUND_SMILES: "Cc1c2c(nn1-c1nnc(-c3ccc(OC(C)C)c(Cl)c3)s1)CCN(CCC(=O)O)C2"
  pIC50: "< 4.30"

###

- MEASUREMENT_PROTOCOL: Passive permeability from apical to basolateral side in MDCK2-MDR1 cells after 90 mins by LC-MS/MS analysis
- Type: ADME, cell-based, Canis lupus familiaris, MDCK-II
- PROTOCOL_CONDITIONS: dog, MDCK-MDR1; read-out: permeability

- COMPOUND_SMILES: "Cc1c2c(nn1-c1nnc(-c3ccc(OC(C)C)c(Cl)c3)s1)CCN(CCC(=O)O)C2"
  Papp A→B at 1.5 h / ×10⁻⁶ cm/s: 14.7

###

- ASSAYED_TARGET: Sphingosine 1-phosphate receptor 3 (Homo sapiens, UniProt Q99500)
- Sequence (Q99500 whole entry): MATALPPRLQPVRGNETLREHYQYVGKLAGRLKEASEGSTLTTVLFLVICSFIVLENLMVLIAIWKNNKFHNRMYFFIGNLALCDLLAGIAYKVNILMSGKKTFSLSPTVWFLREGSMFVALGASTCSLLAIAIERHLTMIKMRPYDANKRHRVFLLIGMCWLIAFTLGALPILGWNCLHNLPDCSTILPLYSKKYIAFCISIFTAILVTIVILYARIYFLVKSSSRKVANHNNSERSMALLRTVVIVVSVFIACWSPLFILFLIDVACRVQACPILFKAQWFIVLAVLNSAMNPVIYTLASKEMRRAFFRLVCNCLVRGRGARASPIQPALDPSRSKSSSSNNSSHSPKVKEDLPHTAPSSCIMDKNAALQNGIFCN
- MEASUREMENT_PROTOCOL: Agonist activity at human S1P3 receptor expressed in RBL cells by [35S]GTP-gammaS accumulation assay
pEC50: −log10 of the molar value.
compounds and their reported pEC50

- COMPOUND_SMILES: "Cc1[nH]ncc1-c1nnc(-c2ccc(OC(C)C)c(Cl)c2)s1"
  pEC50: "< 4.50"
- COMPOUND_SMILES: "CC(C)Oc1ccc(-c2nnc(-c3cnn(CC(=O)O)c3)s2)cc1Cl"
  pEC50: "< 4.50"
- COMPOUND_SMILES: "CC(C)Oc1ccc(-c2nnc(-c3ccno3)s2)cc1Cl"
  pEC50: "< 4.50"

###

- MEASUREMENT_PROTOCOL: Fraction unbound in beagle dog blood after 4 hrs by LC-MS/MS analysis
- Assay type: ADME, tissue-based, Canis lupus familiaris
READOUT_LABEL: fraction unbound at 4 h

- COMPOUND_SMILES: "Cc1c2c(nn1-c1nnc(-c3ccc(OC(C)C)c(Cl)c3)s1)CCN(CCC(=O)O)C2"
  RESULT: 0.011
